Entry source: patent US12281155

molecular target: T1, recombinant SARS-CoV-2 Spike RBD domain, JN-1 variant (SARS-CoV-2); assay: ELISA on coated RBD
T1 construct: also called RBD JN-1 variant
REPORTED PROPERTY: Binding AUC

The binder SPK002M A4 antibody (antibody, human IgG1, kappa, V domains shown) VH: EVQLVESGGGLIQPGGSLRLSCAASVITVTSNYMSWVRQAPGKGLEWVSVIYPGGSTFYADSVKGRFTISADNSKNTLYLQMNSLRAEDTAVYYCARDLVVYGMDVWGQGTTVTVSS VL: EIVLTQSPGTLSLSPGERATLSCRASQSVSSSYLAWYQQKPGQAPRLLIYGASSRATGIPGRFSGSGSGTDFTLTISRLEPEDFAVYYCQQGVTFGGGTKVEIKR showed Binding AUC equal to 31

The binder SPK002M B2 antibody (antibody, human IgG1, kappa, V domains shown) VH: EVQLVESGGGLIQPGGSLRLSCAASIITVTSNYMSWVRQAPGKGLEWVSVIYPGGSTFYADSVKGRFTISYDNSKNTLYLQMNSLRAEDTAVYYCARDLVVYGMDVWGQGTTVTVSS VL: EIVLTQSPGTLSLSPGERATLSCRASQSVSSSYLAWYQQKPGQAPRLLIYGASSRATGIPGRFSGSGSGTDFTLTISRLEPEDFAIYYCQQGVTFGGGTKVEIKR showed Binding AUC equal to 28
